methodSummary: Cytochrome P-450 inhibition (ethoxycoumarin-O-deethylase activity, phenobarbital-induced microsomes)
cond: rat, liver microsomes
# pIC50 values compiled below
Convention used: pIC50 is expressed as -log10 of the molar concentration.

Reference set, count: 3
>>> print(df.to_string())
                                   molecule  recordedmeasurement
0  [O-][S+]1CCn2c1nc(-c1ccc(F)cc1)c2-c1ccncc1 (centres unmarked) [B, reference compound]                 5.30
1  CCSc1ccc(-c2nc3n(c2-c2ccncc2)CCC3)cc1 [Compound 14]                 4.55
2  C[S+]([O-])c1ccc(-c2nc3n(c2-c2ccncc2)CCC3)cc1 (centres unmarked) [Compound 2]                 3.06

Report pIC50 for CSc1ccc(-c2nc3n(c2-c2ccncc2)CCC3)cc1 [Compound 1] please.
4.36

Same question, COc1ccc(-c2nc3n(c2-c2ccnc(C)c2)CCC3)cc1 [Compound 23] this time
4.25

Would you kindly repeat that for Fc1ccc(-c2nc3n(c2-c2ccncc2)CCS3)cc1 [Compound A] ?
6.22

Another molecule to look at: COc1ccc(-c2nc3n(c2-c2ccncc2)CCC3)cc1 [Compound C]
4.67

----------
target: 5-Lipoxygenase (Rattus norvegicus)
Construct: the supernatant was centrifuged at 100,000 x g for 60 min; host or cells: RBL-1 cells (soluble cell extract, high-speed supernatant)
Sequence (P12527 1-673): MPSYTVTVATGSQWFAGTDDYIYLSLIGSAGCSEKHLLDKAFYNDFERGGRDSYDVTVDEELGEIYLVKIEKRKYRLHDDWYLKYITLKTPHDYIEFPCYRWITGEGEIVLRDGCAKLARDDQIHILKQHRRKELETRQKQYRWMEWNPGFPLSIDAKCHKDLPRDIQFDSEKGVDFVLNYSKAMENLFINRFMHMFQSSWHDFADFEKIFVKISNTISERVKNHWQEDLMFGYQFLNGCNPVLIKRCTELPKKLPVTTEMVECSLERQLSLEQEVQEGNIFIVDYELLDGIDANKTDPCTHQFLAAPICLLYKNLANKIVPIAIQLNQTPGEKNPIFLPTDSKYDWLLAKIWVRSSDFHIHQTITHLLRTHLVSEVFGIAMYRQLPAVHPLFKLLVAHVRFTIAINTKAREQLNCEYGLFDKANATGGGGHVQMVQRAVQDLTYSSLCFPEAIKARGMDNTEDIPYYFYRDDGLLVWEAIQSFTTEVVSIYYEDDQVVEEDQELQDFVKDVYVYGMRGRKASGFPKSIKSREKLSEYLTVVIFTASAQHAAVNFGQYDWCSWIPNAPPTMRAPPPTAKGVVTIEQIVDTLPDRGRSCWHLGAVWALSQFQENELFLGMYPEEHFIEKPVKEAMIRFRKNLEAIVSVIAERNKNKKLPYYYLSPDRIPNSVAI
methodSummary: Assay of 5-lipoxygenase activity in RBL-1 high speed supernatant
Format: biochemical
cond: LTB4 production by RBL-1 high speed supernatant; read-out: 5-LO IC50
measuredProperty: pIC50
For clarity, pIC50 is expressed as the negative log10 of concentration in mol/L.

Guide cases for pIC50, answers given:
                             entrysmiles  recordedmeasurement
0  CCOc1ccc(-c2nc3n(c2-c2ccncc2)CCC3)cc1                 5.22
1    Oc1ccc(-c2nc3n(c2-c2ccncc2)CCC3)cc1                 4.77
2   CSc1ccc(-c2nc3n(c2-c2ccncc2)CCC3)cc1                 4.70

Reported pIC50 for "CCCOc1ccc(-c2nc3n(c2-c2ccncc2)CCC3)cc1" : what is it?
5.46

----------
Tested on: arachidonic acid-induced edema in mice
methodSummary: Arachidonic acid-induced mouse ear inflammation (ear swelling)
Type: in vivo, male Balb/c mice
cond: Mus musculus, po, 1 h; 50 mg/kg p.o.; ear thickness one hour after 2 mg arachidonic acid
measuredProperty: inhibition at 50 mg/kg (%)
Report as a plain number; the unit % is understood.

Guide cases for inhibition at 50 mg/kg, answers given:
>>> df
                                   molecule        measuredproperty  recordedmeasurement
0  CC(C)(C)C(=O)Sc1ccc(-c2nc3n(c2-c2ccncc2)CCC3)cc1  inhibition at 50 mg/kg                   45
1  CC(C)Oc1ccc(-c2nc3n(c2-c2ccncc2)CCC3)cc1  inhibition at 50 mg/kg                   43
2  Cc1cc(-c2c(-c3ccc([S+](C)[O-])cc3)nc3n2CCC3)ccn1 (stereo not shown)  inhibition at 50 mg/kg                   59
3       Oc1ccc(-c2nc3n(c2-c2ccncc2)CCC3)cc1  inhibition at 50 mg/kg                   27
4  CC(=O)Sc1ccc(-c2nc3n(c2-c2ccncc2)CCC3)cc1  inhibition at 50 mg/kg                   46

Record request: inhibition at 50 mg/kg value, item "CCCOc1ccc(-c2nc3n(c2-c2ccncc2)CCC3)cc1"
42

Follow-up item: "CSc1ccc(-c2c(-c3ccncc3)nc3n2CCC3)cc1"
28

Input "CSc1ccc(-c2nc3n(c2-c2ccnc(C)c2)CCC3)cc1"
59

Ok, now "c1cc(-c2cn3c(n2)CCC3)ccn1"
20

And "CCSc1ccc(-c2nc3n(c2-c2ccncc2)CCC3)cc1" ?
56

Record: "CC(=O)OCSc1ccc(-c2nc3n(c2-c2ccncc2)CCC3)cc1"
51

Please give the result for CC[S+]([O-])c1ccc(-c2nc3n(c2-c2ccncc2)CCC3)cc1 (stereo not shown) too.
41

How about "COc1ccc(-c2nc3n(c2-c2ccnc(C)c2)CCC3)cc1" ?
56

Now consider C[S+]([O-])c1ccc(-c2c(-c3ccncc3)nc3n2CCC3)cc1 (stereo not shown) .
52

C[S+]([O-])c1ccc(-c2nc3n(c2-c2ccncc2)CCC3)cc1 (stereo not shown) ?
44

Now the molecule "CCOc1ccc(-c2nc3n(c2-c2ccncc2)CCC3)cc1"
62

----------
Listed compounds paired with reported IC50
Test system: Eicosanoid Production in Human Whole Blood
methodSummary: Inhibition of eicosanoid production following calcium ionophore stimulation in human whole blood
Type: cell-based
cond: human blood stimulated with calcium ionophore; LTB4; read-out: 5-LO, IC50 (uM) LTB4
Please state the figure in µM; there is no need to write the unit.

>>> print(df.to_string())
                                   compound                                    target  recordedmeasurement
0  C[S+]([O-])c1ccc(-c2nc3n(c2-c2ccncc2)CCC3)cc1 (centres unmarked)  Eicosanoid Production in Human Whole Blood                   80

For the next question, use this compound.
Tell me the measured IC50 of "CSc1ccc(-c2nc3n(c2-c2ccncc2)CCC3)cc1" , please.
30

----------
target: 5-Lipoxygenase (Rattus norvegicus, UniProt P12527)
Construct: the supernatant was centrifuged at 100,000 x g for 60 min; host or cells: RBL-1 cells (soluble cell extract, high-speed supernatant)
methodSummary: Assay of 5-lipoxygenase activity in RBL-1 high speed supernatant
Assay type: biochemical
cond: total HETE and Di-HETE production by RBL-1 high speed supernatant; read-out: 5-LO IC50
measuredProperty: pIC50
Conceptually, pIC50 converts a concentration in mol/L into minus its log10.

Some solved cases for reference:
>>> print(df.to_string())
                                entrysmiles                                    target  measuredproperty  recordedmeasurement
0  CC(C)(C)C(=O)Sc1ccc(-c2nc3n(c2-c2ccncc2)CCC3)cc1  5-Lipoxygenase (Rattus norvegicus, UniProt P12527)             pIC50                 5.22
1  CCOC(=O)CSc1ccc(-c2nc3n(c2-c2ccncc2)CCC3)cc1  5-Lipoxygenase (Rattus norvegicus, UniProt P12527)             pIC50                 4.30
2     CCSc1ccc(-c2nc3n(c2-c2ccncc2)CCC3)cc1  5-Lipoxygenase (Rattus norvegicus, UniProt P12527)             pIC50                 4.52
3  CC(=O)OCSc1ccc(-c2nc3n(c2-c2ccncc2)CCC3)cc1  5-Lipoxygenase (Rattus norvegicus, UniProt P12527)             pIC50                 4.33
4  CC(=O)Sc1ccc(-c2nc3n(c2-c2ccncc2)CCC3)cc1  5-Lipoxygenase (Rattus norvegicus, UniProt P12527)             pIC50                 4.60

Now consider a different compound.
Quick one: pIC50 for "CCCOc1ccc(-c2nc3n(c2-c2ccncc2)CCC3)cc1" ?
5.10
